Test: Clearance in cynomolgus monkey at 10 mg/kg, iv administered as single dose by LC-MS/MS method
Format: ADME, organism-based, Macaca fascicularis
Set-up: dose 10 mg/kg, route intravenous
Conditions: in vivo
ASSAY_METRIC: clearance (mL/min/kg)
Return type: number; implicit unit mL/min/kg.

What clearance value was documented for this molecule, `C[C@H]1O[C@@H](O[C@H]2[C@H](O)[C@@H](O)[C@@H](O[C@H]3[C@H](O)CN[C@@H]3CO)O[C@@H]2CO)[C@H](O)[C@@H](O)[C@@H]1O` ? 2.25

----------
Assay: Tmax in cynomolgus monkey at 1 mg/kg, po administered as single dose by LC-MS/MS method
Assay type: ADME, organism-based, Macaca fascicularis
Set-up: dose 1 mg/kg, route oral
Settings: in vivo
ASSAY_METRIC: Tmax (h)
Entry rule: numbers only, all in h.

So what does the record say about Tmax for `C[C@H]1O[C@@H](O[C@H]2[C@H](O)[C@@H](O)[C@@H](O[C@H]3[C@H](O)CN[C@@H]3CO)O[C@@H]2CO)[C@H](O)[C@@H](O)[C@@H]1O` ? 1.75
